This listing pairs binders with measured Kd.
assayed system: T1, human PCSK9 (self-cleaved, mature, secreted PCSK9 comprising amino acids 31 to 692 of SEQ ID NO: 2) (human, UniProt Q8NBP7 31-692, biotinylated in the ELISAs)
T1 construct: Limits 31-692 are stated for the immunogen; the assays only say human PCSK9; also called huPCSK9; rhu PCSK9
assay explanation: SPR pH 7.4;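 also: antibodies captured as ligand on the sensor surface, five analyte concentrations injected with buffer blanks, double-referenced data fit to a 1:1 binding model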
Kindly answer with a numeric value in nM, unit omitted.

{"binder": "SS-15114 (antibody, V domains shown, 31H4 His variant: HC 39(32), 132(106), parental(113H)) VH: EVQLVESGGGLVKPGGSLRLSCAASGFTFSSHSMNWVRQAPGKGLEWVSSISSSSSYISYADSVKGRFTISRDNAKNSLYLQMNSLRAEDTAVYFCARDYDFHSAHYDAFDVWGQGTMVTVSS VL: ESVLTQPPSVSGAPGQRVTISCTGSSSNIGAGYDVHWYQQLPGTAPKLLISGNSNRPSGVPDRFSGSKSGTSASLAITGLQAEDEADYYCQSYDSSLSGSVFGGGTKLTVLG", "observed measurement": 0.271}
{"binder": "SS-15132 (antibody, V domains shown, 31H4 His variant: HC 68(58), 132(106), parental(113H)) VH: EVQLVESGGGLVKPGGSLRLSCAASGFTFSSYSMNWVRQAPGKGLEWVSSISSSSSYHSYADSVKGRFTISRDNAKNSLYLQMNSLRAEDTAVYFCARDYDFHSAHYDAFDVWGQGTMVTVSS VL: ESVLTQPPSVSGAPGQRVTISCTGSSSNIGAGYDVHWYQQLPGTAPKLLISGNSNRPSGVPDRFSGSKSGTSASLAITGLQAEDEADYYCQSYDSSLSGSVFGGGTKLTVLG", "observed measurement": 0.273}
{"binder": "SS-15139 (antibody, V domains shown, 31H4 His variant: HC 72(62), 132(106), parental(113H)) VH: EVQLVESGGGLVKPGGSLRLSCAASGFTFSSYSMNWVRQAPGKGLEWVSSISSSSSYISYAHSVKGRFTISRDNAKNSLYLQMNSLRAEDTAVYFCARDYDFHSAHYDAFDVWGQGTMVTVSS VL: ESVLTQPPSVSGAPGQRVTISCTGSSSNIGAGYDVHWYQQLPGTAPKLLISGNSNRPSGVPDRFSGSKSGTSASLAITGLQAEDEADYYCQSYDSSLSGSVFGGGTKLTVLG", "observed measurement": 0.19}
{"binder": "SS-15136 (antibody, V domains shown, 31H4 His variant: HC 70(60), 132(106), parental(113H)) VH: EVQLVESGGGLVKPGGSLRLSCAASGFTFSSYSMNWVRQAPGKGLEWVSSISSSSSYISHADSVKGRFTISRDNAKNSLYLQMNSLRAEDTAVYFCARDYDFHSAHYDAFDVWGQGTMVTVSS VL: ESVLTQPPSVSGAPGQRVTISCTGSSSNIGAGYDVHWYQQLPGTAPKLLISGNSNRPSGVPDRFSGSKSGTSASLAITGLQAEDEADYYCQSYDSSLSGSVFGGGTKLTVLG", "observed measurement": 0.241}

Find the recorded Kd belonging to SS-15065 (antibody, V domains shown, 31H4 His variant: LC 39(32), HC 132(106), parental(113H)) VH: EVQLVESGGGLVKPGGSLRLSCAASGFTFSSYSMNWVRQAPGKGLEWVSSISSSSSYISYADSVKGRFTISRDNAKNSLYLQMNSLRAEDTAVYFCARDYDFHSAHYDAFDVWGQGTMVTVSS VL: ESVLTQPPSVSGAPGQRVTISCTGSSSNIGAGHDVHWYQQLPGTAPKLLISGNSNRPSGVPDRFSGSKSGTSASLAITGLQAEDEADYYCQSYDSSLSGSVFGGGTKLTVLG and report it.
0.274
